- Study System: HDAC6 (Homo sapiens, UniProt Q9UBN7)
- Construct: purchased BPS Bioscience Corp
- Sequence (Q9UBN7 whole entry): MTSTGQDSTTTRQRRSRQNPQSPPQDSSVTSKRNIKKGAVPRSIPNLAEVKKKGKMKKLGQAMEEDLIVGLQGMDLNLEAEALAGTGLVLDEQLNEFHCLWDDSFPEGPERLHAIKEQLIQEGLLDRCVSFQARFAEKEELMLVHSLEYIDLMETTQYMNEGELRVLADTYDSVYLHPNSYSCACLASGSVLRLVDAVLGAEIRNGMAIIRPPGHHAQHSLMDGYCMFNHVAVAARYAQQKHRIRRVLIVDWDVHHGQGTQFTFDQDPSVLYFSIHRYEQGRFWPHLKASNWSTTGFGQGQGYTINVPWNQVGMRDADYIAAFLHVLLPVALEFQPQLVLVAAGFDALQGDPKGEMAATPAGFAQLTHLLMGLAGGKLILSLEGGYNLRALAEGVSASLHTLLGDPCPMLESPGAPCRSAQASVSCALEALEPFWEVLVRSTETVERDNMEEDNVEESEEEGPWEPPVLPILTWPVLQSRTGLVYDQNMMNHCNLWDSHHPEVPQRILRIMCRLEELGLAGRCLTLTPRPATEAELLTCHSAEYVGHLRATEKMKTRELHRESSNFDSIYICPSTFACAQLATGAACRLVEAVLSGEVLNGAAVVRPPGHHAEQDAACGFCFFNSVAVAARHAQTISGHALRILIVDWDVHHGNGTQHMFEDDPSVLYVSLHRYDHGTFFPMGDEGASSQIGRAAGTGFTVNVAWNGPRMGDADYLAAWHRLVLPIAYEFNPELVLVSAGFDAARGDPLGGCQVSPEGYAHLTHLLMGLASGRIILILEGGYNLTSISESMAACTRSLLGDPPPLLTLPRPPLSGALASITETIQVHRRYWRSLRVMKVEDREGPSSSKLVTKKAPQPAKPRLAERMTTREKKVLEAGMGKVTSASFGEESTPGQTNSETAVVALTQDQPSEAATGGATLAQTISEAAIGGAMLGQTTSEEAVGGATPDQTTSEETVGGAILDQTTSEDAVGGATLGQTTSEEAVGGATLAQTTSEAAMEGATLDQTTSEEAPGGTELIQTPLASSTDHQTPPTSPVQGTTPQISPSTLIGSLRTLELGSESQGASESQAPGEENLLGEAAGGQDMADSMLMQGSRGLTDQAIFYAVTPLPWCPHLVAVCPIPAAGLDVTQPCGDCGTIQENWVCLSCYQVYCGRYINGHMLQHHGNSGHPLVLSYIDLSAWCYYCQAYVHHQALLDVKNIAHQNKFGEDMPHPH
- Test Method Notes: Fluorogenic HDAC assay, HDAC6
- Assay type: biochemical
- Condition: recombinant HDAC6; read-out: Enzyme IC50 HDAC6
Observed Property: IC50 (µM)
Give just the numeric value; µM need not be written.

Example cases with answers are listed next.
smiles_str=O=C(NO)c1ccc(COc2cccc3cccnc23)cc1 u=µM val=0.011
smiles_str=O=C(NO)c1ccc(CNc2cnc3ccccc3c2)cc1 u=µM val=0.0191
smiles_str=O=C(NO)c1ccc(CSc2cccc3cccnc23)cc1 u=µM val=0.0234
smiles_str=O=C(NO)c1ccc(NCc2cccc3cccnc23)cc1 u=µM val=0.011
smiles_str=Cc1ccc2cccc(NCc3ccc(C(=O)NO)cc3)c2n1 u=µM val=0.0121

Shift focus to the following entry.
Request: IC50 lookup needed for O=C(NO)c1ccc(CNc2ccc3ncccc3c2)cc1 , thanks.
Result: 0.019

====

- Test system: HL60 leukemia cell line
- Test Method Notes: Antiproliferative activity, HL60
- Type: cell-based
- Condition: Homo sapiens, HL-60
Observed Property: GI50 (µM)
Give just the numeric value; µM need not be written.

smiles_str=O=C(NO)c1ccc(CNc2cccc3nccnc23)cc1 u=µM val=5.58
smiles_str=O=C(NO)c1ccc(Nc2cccc3cccnc23)cc1 u=µM val=6.64
smiles_str=O=C(NO)c1ccc(CNc2nccc3ccccc23)cc1 u=µM val=1.17

Request: GI50 lookup needed for O=C(NO)c1ccc(CNc2cncc3ccccc23)cc1 , thanks.
Result: 1.96

====

- Tested on: PC-3 prostate cancer cell line
- Test Method Notes: Antiproliferative activity, PC-3
- Type: cell-based, human
- Condition: Homo sapiens
- Experimental: A study was conducted to evaluate the inhibitory activity of compounds of Formula (I) in inhibiting HDAC6, antiproliferative activity of test compounds in suppressing cancer cell growth, and selectivity of inhibiting HDAC6 over other HDAC isoforms. […] Shown in Table 2 below are antiproliferative activities (measured by their half maximal concentration for inhibiting cell growth, i.e., GI50) of the test compounds against various cancer cell lines.
Listing: GI50 of selected molecules

molecule="O=C(/C=C/c1ccc(CNc2ccc3ncccc3c2)cc1)NO [Compound 22]" study_system="PC-3 prostate cancer cell line" observed_property=GI50 val="> 10 µM"

Request: GI50 lookup needed for O=C(NO)c1ccc(C(=O)Nc2ccc3ncccc3c2)cc1 [Compound 24] , thanks.
Result: > 10 µM

Request: GI50 lookup needed for O=C(/C=C/c1ccc(C(=O)Nc2cnc3ccccc3c2)cc1)NO [Compound 10] , thanks.
Result: > 10 µM

// data source = patent US11427544B2
